system: BATF2 (bZIP);JUNB (human;human, UniProt Q8N1L9;P17275 1-142;148-347, |)
Sequence 1: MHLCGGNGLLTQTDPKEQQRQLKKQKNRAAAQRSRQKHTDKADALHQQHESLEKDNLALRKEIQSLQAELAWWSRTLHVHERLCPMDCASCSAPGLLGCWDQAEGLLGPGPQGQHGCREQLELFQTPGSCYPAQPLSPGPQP
Sequence 2: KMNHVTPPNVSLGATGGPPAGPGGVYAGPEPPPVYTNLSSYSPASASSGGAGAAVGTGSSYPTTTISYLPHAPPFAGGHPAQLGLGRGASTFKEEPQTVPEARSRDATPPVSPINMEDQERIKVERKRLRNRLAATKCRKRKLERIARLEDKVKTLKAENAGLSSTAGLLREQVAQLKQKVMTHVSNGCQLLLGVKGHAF
run description: Spec-seq (EMSA and sequencing of bound and unbound bands); 100 nM BATFx-JUNB, 1 uM dsDNA library, 50 mM K acetate, 20 mM Tris-acetate, 10 mM Mg acetate, 100 ug/ml BSA, pH 7.9, 10% glycerol, 30 min on ice; native 9% PAGE at 4 C; low values mean tight binding
test context: protein: recombinant;recombinant; tags: N-terminal mCherry-TEV, cleaved off;C-terminal 6His; copies: 1;1; dsDNA, one strand shown
endpoint name: binding signal (kT)
Express the result in kT but write the number alone.

Guide cases for binding signal, answers given:
{"sequence code": "GATAGTCTCATTTTCACCCCGTGAAATGAGTTAATTGTTCCATTACAGTATCTGT", "endpoint name": "binding signal", "result unit": "kT", "result": 0.697}
{"sequence code": "GATAGTCTCATTTTCACCCCGTGAAATGACTTACTTGTTCCATTACAGTATCTGT", "endpoint name": "binding signal", "result unit": "kT", "result": 0.563}

Qu. So what does the record say about binding signal for `GATAGTCTCATTTTCACCCCGTGAAATGACACAATTGTTCCATTACAGTATCTGT` ?
Ans. 0.413

Qu. Record request: binding signal value, item `GATAGTCTCATTTTCACCCCGTGAAATTGCGTCATTGTTCCATTACAGTATCTGT`
Ans. -0.761

Qu. // query binding signal value for entry `GATAGTCTCATTTTCACCCCGTGAAAAGACGTCATTGTTCCATTACAGTATCTGT`
Ans. -0.0139

Qu. What measured binding signal goes with `GATAGTCTCATTTTCACCCCGTGAAAATAAGTCATTGTTCCATTACAGTATCTGT` ?
Ans. -0.0249

Qu. What does the data say about its binding signal? Entry: `GATAGTCTCATTTTCACCCCGTGAAATTACGTCATTGTTCCATTACAGTATCTGT`
Ans. -1.14

Qu. Return reported binding signal; argument: `GATAGTCTCATTTTCACCCCGTGAAATCACTCATTTGTTCCATTACAGTATCTGT`
Ans. 0.442

Qu. Looking for the measured binding signal of `GATAGTCTCATTTTCACCCCGTGAAAAGACTCATTTGTTCCATTACAGTATCTGT` , can you help?
Ans. 0.734

Qu. // returns reported binding signal for input `GATAGTCTCATTTTCACCCCGTGAAATGAGTCAGTTGTTCCATTACAGTATCTGT`
Ans. -0.0533

Qu. Which binding signal value belongs to `GATAGTCTCATTTTCACCCCGTGAAACGACGTCATTGTTCCATTACAGTATCTGT` ?
Ans. -0.195
